system_name: T1, human IGF2^1-67 (mature insulin-like growth factor 2) (human, UniProt P01344 25-91, biotinylated (site not stated) where immobilised on the chip (Tables 1-4))
T1 construct: mature; also called mature IGF2; biotinylated IGF2
assay_protocol: SPR kinetic, biotin-IGF2 on chip, pH 7.4
# label = Y if koff < 0.02 s⁻¹ else N

binder	class_assignment
domain 11^AB5 S1602N (receptor, See m5) MKSNEHDDCQVTNPSTGHLFDLSSLSGRAGFTAAYAKGWGVYMSICGENENCPPGVGACFGQTRISVGKANKRLRYVDQVLQLVYKDGSPCPSKNGLSYKSVISFVCRPEAGPTNRPMLISLDKQTCTLFFSWHTPLACEQATECSV	Y
domain 11^AB5 G1603K (receptor, See m5) MKSNEHDDCQVTNPSTGHLFDLSSLSGRAGFTAAYAKGWGVYMSICGENENCPPGVGACFGQTRISVGKANKRLRYVDQVLQLVYKDGSPCPSKSKLSYKSVISFVCRPEAGPTNRPMLISLDKQTCTLFFSWHTPLACEQATECSV	Y
domain 11^AB5 K1631E (receptor, See m5; HI loop mutant) MKSNEHDDCQVTNPSTGHLFDLSSLSGRAGFTAAYAKGWGVYMSICGENENCPPGVGACFGQTRISVGKANKRLRYVDQVLQLVYKDGSPCPSKSGLSYKSVISFVCRPEAGPTNRPMLISLDEQTCTLFFSWHTPLACEQATECSV	N
domain 11^AB5 K1601A (receptor, See m5) MKSNEHDDCQVTNPSTGHLFDLSSLSGRAGFTAAYAKGWGVYMSICGENENCPPGVGACFGQTRISVGKANKRLRYVDQVLQLVYKDGSPCPSASGLSYKSVISFVCRPEAGPTNRPMLISLDKQTCTLFFSWHTPLACEQATECSV	N
domain 11^AB5 Q1632A (receptor, See m5; HI loop mutant) MKSNEHDDCQVTNPSTGHLFDLSSLSGRAGFTAAYAKGWGVYMSICGENENCPPGVGACFGQTRISVGKANKRLRYVDQVLQLVYKDGSPCPSKSGLSYKSVISFVCRPEAGPTNRPMLISLDKATCTLFFSWHTPLACEQATECSV	Y
domain 11^AB5 S1602Q (receptor, See m5) MKSNEHDDCQVTNPSTGHLFDLSSLSGRAGFTAAYAKGWGVYMSICGENENCPPGVGACFGQTRISVGKANKRLRYVDQVLQLVYKDGSPCPSKQGLSYKSVISFVCRPEAGPTNRPMLISLDKQTCTLFFSWHTPLACEQATECSV	Y
IGF2R domain 11^WT (receptor, Soluble His6-tagged domain 11 from P. pastoris and/or E. coli; also called wild-type domain 11) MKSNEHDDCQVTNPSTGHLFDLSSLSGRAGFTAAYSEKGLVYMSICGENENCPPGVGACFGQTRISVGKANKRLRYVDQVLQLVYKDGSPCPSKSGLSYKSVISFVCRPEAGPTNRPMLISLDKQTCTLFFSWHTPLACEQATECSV	N
domain 11^AB5 Q1632K (receptor, See m5; HI loop mutant) MKSNEHDDCQVTNPSTGHLFDLSSLSGRAGFTAAYAKGWGVYMSICGENENCPPGVGACFGQTRISVGKANKRLRYVDQVLQLVYKDGSPCPSKSGLSYKSVISFVCRPEAGPTNRPMLISLDKKTCTLFFSWHTPLACEQATECSV	N
domain 11^AB5 S1602H (receptor, See m5) MKSNEHDDCQVTNPSTGHLFDLSSLSGRAGFTAAYAKGWGVYMSICGENENCPPGVGACFGQTRISVGKANKRLRYVDQVLQLVYKDGSPCPSKHGLSYKSVISFVCRPEAGPTNRPMLISLDKQTCTLFFSWHTPLACEQATECSV	Y
domain 11^AB5 K1601R (receptor, See m5) MKSNEHDDCQVTNPSTGHLFDLSSLSGRAGFTAAYAKGWGVYMSICGENENCPPGVGACFGQTRISVGKANKRLRYVDQVLQLVYKDGSPCPSRSGLSYKSVISFVCRPEAGPTNRPMLISLDKQTCTLFFSWHTPLACEQATECSV	N
domain 11^AB5 W1546F (receptor, See m5) MKSNEHDDCQVTNPSTGHLFDLSSLSGRAGFTAAYAKGFGVYMSICGENENCPPGVGACFGQTRISVGKANKRLRYVDQVLQLVYKDGSPCPSKSGLSYKSVISFVCRPEAGPTNRPMLISLDKQTCTLFFSWHTPLACEQATECSV	Y
IGF2R domain 11^AB3 (receptor, His6-tagged soluble domain 11; also called domain 11^E1544K, K1545S, L1547V; 1542YSKSGV1547) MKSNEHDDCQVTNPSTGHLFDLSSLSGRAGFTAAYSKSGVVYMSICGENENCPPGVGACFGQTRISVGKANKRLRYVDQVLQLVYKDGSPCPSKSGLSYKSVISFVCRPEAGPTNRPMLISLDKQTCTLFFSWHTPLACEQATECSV	N
